Each entry below carries its measured Ki, system: Acetylcholinesterase (Electrophorus electricus).
Sequence (O42275 whole entry): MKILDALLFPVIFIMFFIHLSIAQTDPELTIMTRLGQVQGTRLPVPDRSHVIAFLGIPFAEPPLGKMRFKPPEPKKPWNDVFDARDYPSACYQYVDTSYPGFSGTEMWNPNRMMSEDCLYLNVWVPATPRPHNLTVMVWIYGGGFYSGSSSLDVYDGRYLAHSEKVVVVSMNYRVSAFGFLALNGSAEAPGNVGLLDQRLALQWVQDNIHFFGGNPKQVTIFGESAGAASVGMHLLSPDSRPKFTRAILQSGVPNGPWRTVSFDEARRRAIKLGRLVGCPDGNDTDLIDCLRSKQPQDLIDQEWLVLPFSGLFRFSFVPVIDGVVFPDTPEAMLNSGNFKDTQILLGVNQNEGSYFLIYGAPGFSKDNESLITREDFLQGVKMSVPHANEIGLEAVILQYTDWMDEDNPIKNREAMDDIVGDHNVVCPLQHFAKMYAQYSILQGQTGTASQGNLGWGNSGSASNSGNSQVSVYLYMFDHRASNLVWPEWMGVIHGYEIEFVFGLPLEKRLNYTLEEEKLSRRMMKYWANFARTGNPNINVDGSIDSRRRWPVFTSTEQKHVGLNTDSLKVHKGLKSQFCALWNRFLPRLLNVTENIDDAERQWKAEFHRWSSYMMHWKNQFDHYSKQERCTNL
Quick note: give the figure in µM, leave out the unit.

Use these answered entries as a reference point.
COC(=O)[C@@]1(C)CC[C@]2(C)CC[C@]3(C)C(=CC(=O)[C@@H]4[C@@]5(C)CC[C@H](OC(=O)[C@@H](N)Cc6ccccc6)C(C)(C)[C@@H]5CC[C@]43C)[C@@H]2C1; 20.7
CCOC(=O)[C@@]1(C)CC[C@]2(C)CC[C@]3(C)C(=CC(=O)[C@@H]4[C@@]5(C)CC[C@H](OC(=O)[C@@H](N)Cc6ccccc6)C(C)(C)[C@@H]5CC[C@]43C)[C@@H]2C1; 13.7
COC(=O)[C@@]1(C)CC[C@]2(C)CC[C@]3(C)C(=CC(=O)[C@@H]4[C@@]5(C)CC[C@H](OC(=O)[C@H](C)N)C(C)(C)[C@@H]5CC[C@]43C)[C@@H]2C1; 20.8
COC(=O)[C@@]1(C)CC[C@]2(C)CC[C@]3(C)C(=CC(=O)[C@@H]4[C@@]5(C)CC[C@H](OC(=O)CN)C(C)(C)[C@@H]5CC[C@]43C)[C@@H]2C1; 19.8
COC(=O)[C@@]1(C)CC[C@]2(C)CC[C@]3(C)C(=CC(=O)[C@@H]4[C@@]5(C)CC[C@H](OC(=O)[C@@H](N)CC(=O)OCc6ccccc6)C(C)(C)[C@@H]5CC[C@]43C)[C@@H]2C1; 28.1

Request: Ki, test system Acetylcholinesterase (Electrophorus electricus), entry COC(=O)[C@@]1(C)CC[C@]2(C)CC[C@]3(C)C(=CC(=O)[C@@H]4[C@@]5(C)CC[C@H](OC(=O)[C@@H]6CCCN6)C(C)(C)[C@@H]5CC[C@]43C)[C@@H]2C1
23.5

Request: Ki, test system Acetylcholinesterase (Electrophorus electricus), entry COC(=O)[C@@]1(C)CC[C@]2(C)CC[C@]3(C)C(=CC(=O)[C@@H]4[C@@]5(C)CC[C@H](OC(=O)[C@@H](C)N)C(C)(C)[C@@H]5CC[C@]43C)[C@@H]2C1
17.7

Values were extracted from ChEMBL document CHEMBL3286281.
